System: RPMI-8226 leukemia
assay summary: NCI tumour cell line growth inhibition, 48 h
TGI values by entry

compound	measurement target	TGI
CCOC(=O)c1cc2c3ccn(Cc4ccccc4)c3c3c(C)[nH]oc3c2n1	RPMI-8226 leukemia	> 100 µM
O=C1C2C3C=C4c5ccccc5N(c5ccccc5)C4(C2C(=O)N1c1ccc([N+](=O)[O-])cc1)[C@H]1C(=O)N(c2ccc([N+](=O)[O-])cc2)C(=O)[C@@H]31 (stereo not given in full)	RPMI-8226 leukemia	> 100 µM
CC(=O)[C@@H](C)C(=O)N1C(=O)OC[C@@]12[C@@H]1CC[C@@H](C1)C2(C)C	RPMI-8226 leukemia	> 100 µM
NNC(=S)N/N=C(/C(=O)Nc1ccc(Cl)c(Cl)c1)C(C1OC(=O)c2ccccc21)[N+](=O)[O-] (stereo not given)	RPMI-8226 leukemia	> 100 µM
CCN(CC)CCSc1c2cc(OC)ccc2nc2ccc(OC)cc12	RPMI-8226 leukemia	6.96 µM
O=C(c1ccco1)N(C(=S)OCCOc1ccccc1)c1ccccc1	RPMI-8226 leukemia	47.2 µM
COc1cc2[nH]c3c(c2cc1OC)CCN[C@]31CC[C@]2(CC3c4c(cc(OC)c(O)c42)CCN3C)C[C@H]1OC (stereo not given in full)	RPMI-8226 leukemia	41.9 µM
Nc1ccccc1/C(O)=C1/CCOC1=O	RPMI-8226 leukemia	> 100 µM
Nc1ccc(Cc2c(N)[nH]c(=O)[nH]c2=O)cc1	RPMI-8226 leukemia	> 100 µM
Cc1ccc(S(=O)(=O)N/N=C2/CCCOC2)cc1	RPMI-8226 leukemia	> 100 µM
COc1ccc(-c2[nH]c3ccc(OC)cc3c2/C=C(\C#N)S(=O)(=O)c2ccccc2)cc1	RPMI-8226 leukemia	6.64 µM
CC1=CCC(O)C=CC(C)C(O)C(C)C=C(C)C(=O)c2c(O)c(C)cc3c2C(=O)C(N)=C(NC(=O)/C=C\C=C/C=CC(C)C(O)CC1=O)C3=O (stereo not given)	RPMI-8226 leukemia	> 100 µM
COc1cc2c3c(n(CCCN)c(=O)c2cc1OC)-c1ccc(C#N)cc1C3=O	RPMI-8226 leukemia	41.5 µM
COC(=O)CC1N=C(NC#N)N(CCc2c[nH]c3ccccc23)C1=O (stereo not given)	RPMI-8226 leukemia	> 100 µM
CCOC(C)O[C@H]1C(=O)OCC1(C)C (stereo not given in full)	RPMI-8226 leukemia	> 100 µM
CC(C)c1ccc(-c2cc(-c3cn[nH]c3-c3ccccn3)ccn2)cc1	RPMI-8226 leukemia	> 25 µM
CCOC(=O)C(=O)Nc1ccccc1CC	RPMI-8226 leukemia	> 100 µM
CCOC(=O)c1c(N2CCOCC2)[nH]c(=O)c(C(c2c(Cl)cccc2Cl)c2c(O)c(C(=O)OCC)c(N3CCOCC3)[nH]c2=O)c1O	RPMI-8226 leukemia	5.27 µM
Cc1cc2nc(C=C(C(F)(F)F)C(F)(F)F)oc2cc1C	RPMI-8226 leukemia	5.62 µM
O=C(Nc1cc(Cl)c(Cl)cc1Cl)C(=O)C1C(=O)NC(=S)NC1=O	RPMI-8226 leukemia	> 100 µM

###

Test system: HT29 colon
assay summary: NCI tumour cell line growth inhibition, 48 h
measured attribute: TGI

molecule	measured attribute	result
O=C(c1ccco1)N(C(=S)OCCOc1ccccc1)c1ccccc1	TGI	42.1 µM
Cc1ccc2c(c1)CC1(Cc3ccccc3C1=O)C2=O (stereo not drawn)	TGI	> 100 µM
CCc1cc(Cc2cc(CC)c(NC(=O)C(=O)CC(=O)c3sc(-c4cccnc4)nc3C)c(CC)c2)cc(CC)c1NC(=O)C(=O)CC(=O)c1sc(-c2cccnc2)nc1C	TGI	> 100 µM
CCCC1=C(CC)C(C(=O)Nc2c(C)cccc2C)=NC(S)N1 (stereo not drawn)	TGI	> 100 µM
CC12OC(C(=O)C13CC3)C1C(=O)c3ccc4c(ccc5ccccc54)c3C(=O)C12 (stereo not drawn)	TGI	> 100 µM
Cc1nnc(NS(=O)(=O)c2ccc(N=Nc3cc(N=Nc4ccc(S(=O)(=O)Nc5nnc(C)s5)cc4)c4c(NC(=O)C(Cl)Cl)cccc4c3OC(=O)C(Cl)Cl)cc2)s1 (tested in a mixture with another compound)	TGI	> 100 µM
C=C(C)[C@@H]1CC[C@]2(CO)CC[C@]3(C)[C@H](CC[C@@H]4[C@@]5(C)C=C(C#N)C(=O)C(C)(C)[C@@H]5CC[C@]43C)[C@@H]12	TGI	4.76 µM
CC(=O)Nc1ccc(/C=C/c2ccc(NC(=O)Nc3ccc(/C=C/c4ccc(NC(C)=O)cc4S(=O)(=O)O)c(S(=O)(=O)O)c3)cc2S(=O)(=O)O)c(S(=O)(=O)O)c1	TGI	> 100 µM
O=S(=O)(c1ccc(NC(=S)NC23CC4CC(CC(C4)C2)C3)cc1)N1CCCCC1	TGI	5.84 µM
Nc1ccccc1/C(O)=C1/CCOC1=O	TGI	> 100 µM
O=[N+]([O-])c1ccc(S(=O)(=O)n2c3ccc(Br)cc3c3nc4ccccc4nc32)cc1	TGI	> 100 µM
Nc1nc(-c2ccccc2)cc(-c2ccc(OCc3ccccc3)cc2O)n1	TGI	> 100 µM
COc1ccc2[nH]c3c4[nH]c5ccc(OC)cc5c4c4c(c3c2c1)C(=O)NC4=O	TGI	> 25 µM
OCC1OC(n2cnc3c2NC=NC[C@H]3O)C(Cl)C1O (stereo partly drawn)	TGI	> 100 µM
O=C(Nc1nnc(-c2ccc(Cl)cc2)o1)C(SC(=S)N1CCOCC1)c1ccccc1 (stereo not drawn)	TGI	78.3 µM
C[Si](C)(C)OC1CC(=O)OC1n1cc(F)c(=O)[nH]c1=O (stereo not drawn)	TGI	> 100 µM
COC(=O)Nc1nc2ccc(S(=O)(=O)SC)cc2[nH]1	TGI	11.1 µM
CC(=O)O[C@H]1CCC2[C@@H]3CC[C@]4(C)CC(=O)C=C[C@]4(C)C3CC[C@@]21C (stereo partly drawn)	TGI	32.8 µM

###

Test system: NCI-H460 lung
assay summary: NCI tumour cell line growth inhibition, 48 h
The entries below are paired with their reported TGI.
measured attribute: TGI

molecule	measured attribute	result
O=C(Nc1n[nH]c2cc(-c3ccccc3)ccc12)C1CC1	TGI	> 25 µM
O=C1/C(=C(/c2ccccc2)N2CCOCC2)Cc2ccccc21	TGI	18.6 µM
CCC(C)NC1=NCC(C)S1 (stereo unspecified)	TGI	> 100 µM
C=C(C)[C@H]1Cc2c(ccc3c2O[C@@H]2COc4cc(OC)c(OC)cc4[C@@H]2C3=O)O1	TGI	15.8 µM
N#Cc1c(-c2ccccc2)[nH]c2ccc(Cl)cc2c1=O	TGI	> 100 µM
COC(=O)C(Cc1nc2ccccc2[nH]c1=O)C(NO)C(=O)Nc1c(Cl)cc([N+](=O)[O-])cc1Cl (stereo unspecified)	TGI	44.7 µM
O=c1cc(N2CCCC2)[nH]c(=O)n1-c1cccc(Cl)c1	TGI	> 100 µM
CC1=CC(C)(C)N=C2SC(c3ccc(N)cc3)=NN12	TGI	> 100 µM
N#Cc1cc(-c2cc3ccccc3o2)oc1N	TGI	10.6 µM
O=C(c1cccs1)N1CCc2ccccc2C1	TGI	> 100 µM
O=[N+]([O-])c1ccc(S(=O)(=O)n2c3ccc(Br)cc3c3nc4ccccc4nc32)cc1	TGI	> 100 µM

###

# TGI per record follows
Tested on: CAKI-1 renal
assay summary: NCI tumour cell line growth inhibition, 48 h
measured attribute: TGI

molecule	result
COc1ccc(C(=O)c2cc(OC)c(OC)c(OC)c2)cc1/C=C/C(=O)c1ccc(F)cc1	14.6 µM
C1=Cc2cc3c(c4nccc(c24)N1)OCO3	> 32.1 µM
CC(=O)O[C@H]1C(=O)[C@@]2(C)[C@H]([C@H](OC(=O)c3ccoc3)[C@]3(O)C[C@H](OC(=O)[C@H](O)[C@@H](NC(=O)c4ccccc4)c4ccccc4)C(C)=C1C3(C)C)[C@]1(OC(C)=O)CO[C@@H]1C[C@@H]2O	> 12.5 µM
Cc1cc(NS(=O)(=O)c2ccc(Nc3c4ccccc4nc4c(C(=O)N5CCN(CCO)CC5)cccc34)cc2)no1	> 100 µM
CC(C)=CCC(O)[C@](C)(O)[C@H]1[C@H](O)C[C@@]2(C)[C@@H]3CCc4cc(O)c(OC5OC(CO)C(O)C(O)C5O)cc4C3(C)C(=O)C[C@]12C (some centres undefined)	> 100 µM
COc1c2c(cc3c1OCO3)[C@]13C=C[C@H](OC)C[C@H]1N(C2)CC3O (some centres undefined)	> 100 µM
CC/C=C\C[C@H](O)C/C=C1/C(=O)C=C[C@@H]1C/C=C\CCCC(=O)OC	12.7 µM
O=C(Nc1n[nH]c2cc(-c3ccccc3)ccc12)C1CC1	> 25 µM
O=C(NCP(=O)(c1ccccc1)c1ccccc1)OCc1ccccc1	> 100 µM

###

System: MDA-MB-231 breast
assay summary: NCI tumour cell line growth inhibition, 48 h

compound	TGI
COc1ccc(/C=C/c2c(C(=O)/C=C/c3ccccc3)c(C)nc3ccccc23)cc1	7.87 µM
Cc1cc(C(=O)Nc2ccc3cc(CN4CCOCC4)ccc3n2)c(C)n1-c1ccccc1	51.8 µM
CN1CCc2nc(N)nc(-c3nc(N)nc4c3CN(C)CC4)c2C1	> 100 µM
COc1ccc(C(=O)c2cc(C)c(OC)c(C)c2)c(OC)c1O	> 100 µM
O=C(Nc1nnc(-c2ccc(Cl)cc2)o1)C(SC(=S)N1CCOCC1)c1ccccc1 (stereo unspecified)	> 100 µM
N#Cc1c(-c2ccccc2)[nH]c2ccc(Cl)cc2c1=O	89.7 µM
COCC[C@H]1CCC/C=C/[C@@H]2C[C@H](O)C[C@H]2[C@H](O)/C=C/C(=O)O1	0.322 µM
N#Cc1cc(-c2cc3ccccc3o2)oc1N	4.76 µM
COc1ccc(C(=O)c2cc(C)c(OC)c(C)c2)cc1OC(=O)CCl	> 100 µM
O=C1NC(=S)NC(=O)C1C(c1ccc(O)cc1)C1C(=O)NC(=S)NC1=O	> 100 µM
COCCCNc1nc(N)c(C#N)c(C#N)c1C#N	> 10 µM
